# Tested on: SNB-19 CNS
# experiment: NCI-60 one-dose screen, 48 h (100 = growth as untreated, 0 = no growth, -100 = all killed)
# condition parameters: 10 µM unless noted
This is part of a sample that, as a whole, favours compounds with a hit. Of some 83,000 tested, about 20% had one in any assay.
Listed here: items and their measured growth.
# value in %; strip the unit string

• O=C1OCC2=C1C(c1ccccc1)c1cc3c(cc1N2CCO)OCCO3 (stereo unspecified) = 12.8
• Cc1cccc(NC(=O)Cn2cc(CN3CCN(c4ccnc5cc(Cl)ccc45)CC3)nn2)c1 = 89.6

Query string: Looking for the measured growth of Cc1ccc2c(/C=C/C(=O)c3cc(CN4CCOCC4)c(O)c4nc(C)ccc34)cc(CN3CCOCC3)c(O)c2n1 , can you help?
Result string: 36.4

Query string: Looking for the measured growth of O=C(c1c[nH]c2ccccc12)c1n[nH]c(=S)n1-c1ccc([N+](=O)[O-])cc1 , can you help?
Result string: 116

###

Listed here: items and their measured growth.
# Tested on: UO-31 renal
# experiment: NCI-60 one-dose screen, 48 h (100 = growth as untreated, 0 = no growth, -100 = all killed)
# condition parameters: 10 µM unless noted
The panel holds about 83,000 compounds, 20% with a hit somewhere; the sample as a whole holds those more often.
# value in %; strip the unit string

• CS(=O)(=O)Nc1cc(-c2ccc3ncnc(Nc4ccc(OCc5ccccn5)c(Cl)c4)c3c2)cnc1Cl = 0.194
• CCOc1ccc(/C=C/C(=O)c2cccc(OCCCOc3cccc(C(=O)/C=C/c4ccc(OCC)cc4)c3)c2)cc1 = 73.4
• N#Cc1c(-c2ccc(Br)cc2)nc2c(N=Nc3ccc(S(N)(=O)=O)cc3)c(N)nn2c1N = 59.5
• COC(=O)c1c2c(c[n+]([O-])c1C)C(=O)C=C(NCc1ccccc1)C2=O = -100
• CNC(=O)c1cc(Oc2ccc3c(c2)sc2nc(-c4ccc(Cl)c(C(F)(F)F)c4)cn23)ccn1 = 58.8

Please turn your attention to the following entry.
Query string: Looking for the measured growth of O=C1O[C@@H](c2ccccc2Cl)[C@@H]2c3cc4c(cc3CCN12)OCO4 , can you help?
Result string: 74.6

###

# System: ACHN renal
# experiment: NCI-60 one-dose screen, 48 h (100 = growth as untreated, 0 = no growth, -100 = all killed)
# condition parameters: 10 µM unless noted
The panel holds about 83,000 compounds, 20% with a hit somewhere; the sample as a whole holds those more often. Activity calls are given as the source filed them. Rule for the calls: active = growth percent below 10; inactive = the rest.
recorded endpoint: growth

Solved cases (4 shown):
• Cc1c(C(C)(C)O)cn2ncnc(Oc3ccc(NC(=O)Nc4ccc(Cl)c(C(F)(F)F)c4)c(F)c3)c12 = 39.5% (inactive)
• C=C1C(=O)O[C@H]2[C@H]1CC/C(COC(=O)/C=C\C(=O)NCc1ccc(Cn3c(=O)sn(CCCCl)c3=O)cc1)=C\CC[C@@]1(C)O[C@@H]21 = 40.2% (inactive)
• C=C1C(=O)O[C@H]2[C@H]1CC/C(CNC(=O)Cc1c[nH]c3ccccc13)=C\CC[C@@]1(C)O[C@@H]21 = 3.84% (active)
• Cc1cc(=O)oc2cc(Oc3nc(Br)cn4c(Br)cnc34)ccc12 = 65.8% (inactive)

Please turn your attention to the following entry.
Query string: Looking for the measured growth of Oc1ccc(-c2nc3ccc4[nH]ncc4c3c3c2CCCC3)c(F)c1 , can you help?
Result string: 11.9% (inactive)

###

# Tested on: MDA-MB-231 breast
# experiment: NCI-60 one-dose screen, 48 h
# condition parameters: 10 µM unless noted
About 83,000 compounds went through this panel and 20% of them were active in at least one assay; those are over-represented in the sample as a whole. Active and inactive are the calls of the source. The calls were made as follows: active = growth percent below 10; inactive = the rest.
A correct response names exactly one class from 1.0 = active, 0.0 = inactive

* Cn1cc(-c2csc(-c3cn(CCCN4CCOCC4)c4ccc(F)cc34)n2)c2cccnc21 | 0.0
* O=C1C(Cl)=C(Nc2ccccc2)C(=O)c2ccccc21 | 1.0
* Oc1ccc(-c2nc3ccc4[nH]ncc4c3c3c2CCCC3)c(F)c1 | 0.0
* CS(=O)/C(C#N)=C\C=C\c1cccc(Cl)c1 (stereo unspecified) | 0.0
* COc1ccc(-c2cc(-c3cc(OC)ccc3OC)nc(SCC(C)=O)c2C#N)cc1 | 0.0

Query string: For COc1ccc(C2CC(n3ccnc3)c3cc(OC)c(OC)c(OC)c32)cc1O (stereo unspecified) , which call appears in the assay record?
Result string: 0.0

Query string: For CN(C)CCCC1(c2ccc(F)cc2)OCc2cc(-c3csc4ccccc34)ccc21 (stereo unspecified) , which call appears in the assay record?
Result string: 0.0

###

# System: CCRF-CEM leukemia
# experiment: NCI-60 one-dose screen, 48 h
# condition parameters: 10 µM unless noted
The panel holds about 83,000 compounds, 20% with a hit somewhere; the sample as a whole holds those more often. Calls of active or inactive are those of the source. Rule for the calls: active = growth percent below 10; inactive = the rest.
A correct response names exactly one class from active, inactive

Answered examples (3):
- COC(=O)c1sccc1-c1cc(O)c(C(=O)Nc2ccccc2)s1: inactive
- COCCn1cc(-c2nc(-c3cc4cccnc4n3C)cs2)c2ccccc21: inactive
- C#COc1cccc(Nc2ncnc3cc(NC(=O)[C@H](C)Cl)ccc23)c1: inactive

Query string: For C(=C(\C1=NCCN1)n1ccc2ccccc21)/c1ccccc1 , which call appears in the assay record?
Result string: inactive

Query string: For CCC(C)(C)c1ccc(Nc2ccc(Nc3ccc(C(C)(C)CC)cc3)cc2)cc1 , which call appears in the assay record?
Result string: inactive

Query string: For COc1ccccc1S(=O)(=O)Nc1ccc2c3c(cc(CCC(=O)NCCCCNc4cccc5c4C(=O)N(C4CCC(=O)NC4=O)C5=O)cc13)C(=O)N2C (centres undefined) , which call appears in the assay record?
Result string: active

###

# System: CCRF-CEM leukemia
# experiment: NCI-60 one-dose screen, 48 h
# condition parameters: 10 µM unless noted
This is part of a sample that, as a whole, favours compounds with a hit. Of some 83,000 tested, about 20% had one in any assay. The source made the active and inactive calls. Rule for the calls: active = growth percent below 10; inactive = the rest.
A correct response names exactly one class from TRUE = active, FALSE = inactive

Answered examples (2):
* O=C(Nc1ncc(Cc2ccccc2)s1)c1sc2ccccc2c1Cl | FALSE
* CCOC(=O)C/C(=N\Nc1cc(=O)[nH]c2ccc(C)cc12)C(=O)OCC | TRUE

Query string: For CCN1C(=O)N(c2ccccc2)C2NC(=S)N(/N=C/C=C/c3ccccc3OC)C21 (configuration not stated) , which call appears in the assay record?
Result string: FALSE

Query string: For Nc1cc(-c2ccc(Cl)cc2)nn1-c1nnc(/C=C/c2ccco2)c(=O)[nH]1 , which call appears in the assay record?
Result string: FALSE

Query string: For CC(=O)c1c(Nc2cccc(F)c2)[nH]c2c(Cl)cc(Cl)c(Cl)c2c1=O , which call appears in the assay record?
Result string: TRUE

Query string: For CCCCCCCCCCCCCCCCCCOc1ccccc1CC(=O)NCC[N+](C)(C)C , which call appears in the assay record?
Result string: TRUE

Query string: For O=C(Oc1ccc2c(c1)sc1nc(-c3ccccc3)[nH]c(=O)c12)C(F)(F)F , which call appears in the assay record?
Result string: FALSE

###

# System: SR leukemia
# experiment: NCI-60 one-dose screen, 48 h
# condition parameters: 10 µM unless noted
About 83,000 compounds went through this panel and 20% of them were active in at least one assay; those are over-represented in the sample as a whole. Calls of active or inactive are those of the source. How the source made its calls: active means growth percent below 10; inactive means the rest.
A correct response names exactly one class from 1.0 = active, 0.0 = inactive

Answered examples (3):
* O=S(=O)(Nc1ccc2ccccc2c1)c1ccc(-c2cnc(C3CC3)o2)cc1 | 0.0
* COc1ccc(N=C2NN=C(c3c[nH]c4ccccc34)CS2)cc1OC | 0.0
* Cc1ccc(Cc2cnc(NC(=O)/C=C/c3ccc(C)o3)s2)cc1 | 0.0

Query string: For Cc1cccc(N2C(=O)/C(=C/C(Cl)=C/c3ccc([N+](=O)[O-])cc3)SC2=S)c1C , which call appears in the assay record?
Result string: 1.0

###

# Test system: SK-OV-3 ovarian
# experiment: NCI-60 one-dose screen, 48 h
# condition parameters: 10 µM unless noted
The panel holds about 83,000 compounds, 20% with a hit somewhere; the sample as a whole holds those more often. Active and inactive are the calls of the source. The calls were made as follows: active = growth percent below 10; inactive = the rest.
A correct response names exactly one class from active, inactive

Query string: For Cc1cc(NCCCNc2ccnc3cc(Cl)ccc23)nc(Nc2ccc(C(=O)N3CCCCC3)cc2)n1 , which call appears in the assay record?
Result string: inactive

Query string: For C=C(C)[C@@H]1CC[C@]2(C(=O)N3CCNCC3)CC[C@]3(C)[C@H](CC[C@@H]4[C@@](C)(CCC(=O)N5CCNCC5)[C@H](C(=C)C)CC[C@]43C)[C@@H]12 , which call appears in the assay record?
Result string: inactive

Query string: For CCN1C(=O)N(CC)C2C1NN=c1s/c(=C\c3ccc(OC)cc3)c(=O)n12 (stereo not given) , which call appears in the assay record?
Result string: inactive

Query string: For O=C1Nc2ccc(Cl)cc2/C1=C/c1ccc[nH]1 , which call appears in the assay record?
Result string: inactive

Query string: For O=C(/C=C/c1ccccc1Cl)c1cccc(OCCCCOc2cccc(C(=O)/C=C/c3ccccc3Cl)c2)c1 , which call appears in the assay record?
Result string: inactive

Query string: For Cc1cc(C)c2c(c1)N(C)c1ncnc(-n3c(C)nc4cc(C)ccc43)c1CC2C (stereo not given) , which call appears in the assay record?
Result string: inactive

Query string: For O=C(Nc1cccnc1Nc1ccccc1)c1cn(Cc2cccc(Oc3ccccc3)c2)nn1 , which call appears in the assay record?
Result string: inactive

Query string: For COc1ccc(C/C(C)=C(\c2ccc(O)cc2)c2ccc(OCCN3CCCCC3)cc2)cc1 , which call appears in the assay record?
Result string: inactive

Query string: For C=C(C)[C@@H]1CC[C@]2(C(=O)N3CCN(C)CC3)CC[C@]3(C)[C@H](CC[C@@H]4[C@@](C)(CCC(=O)O)[C@H](C(=C)C)CC[C@]43C)[C@@H]12 , which call appears in the assay record?
Result string: inactive

Query string: For CCOC(=O)c1ccc[nH]1 , which call appears in the assay record?
Result string: inactive

Query string: For CC(C)CCC[C@@H](C)[C@H]1CC[C@H]2[C@@H]3CC=C4c5sc(Nc6cc(C(F)(F)F)cc(C(F)(F)F)c6)nc5CC[C@]4(C)[C@H]3CC[C@]12C , which call appears in the assay record?
Result string: inactive

Query string: For COc1ccc2c(O)c(/C=C3\N=Nc4ncccc43)oc2c1C[C@@H]1CCNC[C@H]1F , which call appears in the assay record?
Result string: inactive

Query string: For Cc1ccc2c(/C=C/C(=O)c3cc(CN4CCOCC4)c(O)c4nc(C)ccc34)cc(CN3CCOCC3)c(O)c2n1 , which call appears in the assay record?
Result string: active

Query string: For CS(=O)/C(C#N)=C\C=C\c1cccc(Cl)c1 (stereo not given) , which call appears in the assay record?
Result string: inactive

Query string: For Cc1ccc(S(=O)(=O)N2CCCN(c3nc(-c4ccccc4)nc4nc(-c5ccccc5)oc34)CC2)cc1 , which call appears in the assay record?
Result string: inactive

Query string: For CCN(CC)CCOc1ccc(/C(=C(\C)Cc2ccc(OC)cc2)c2ccc(OC(=O)NCc3ccccc3)cc2)cc1 , which call appears in the assay record?
Result string: inactive

Recorded values, source PubChem BioAssay (NCI).
